Values compiled from patent US20240002497A1.

Recorded EC50 values for a group of binders are listed next.
target: T1, huNav1.7α + β1 (HEKa/β1) (human, UniProt Q15858 1-1988; Q07699 19-218); experiment: binding FACS, HEKa/β1 cells
T1 construct: also called HEKa/β1 huNav1.7α
Please don't drop the unit; write it after the number.

INSERT INTO assay_data (binder, test_result) VALUES
  ('F010301665 (VHH) VHH: EVQLVESGGGLVQPGGSLRLSCAASVRPFSTSAMGWFRQAPEKEREAVAAILWNGIVTYYADSVKGRFTISRDNAKNEVYLQMNKLKPEDTAVYYCALDRAYGGRSFSAKEYEYWGQGTLVTVAA', '0.011 µM');

In: Look up and report measured EC50 for this entry: F010301666 (VHH) VHH: EVQLVESGGGLVQPGGSLRLSCAASVRPFSTSAMGWFRQAPEKEREAVAAILWNGIVTYYADSVKGRFTISRDNAKNEVYLQMNKLKPEDTAVYYCALDRDYQGRSFSAKEYEYWGQGTLVTVSS
Out: 0.014 µM
